Target: BTK (Homo sapiens)
Construct: purchased Reaction Biology Corporation
Sequence (Q06187 whole entry): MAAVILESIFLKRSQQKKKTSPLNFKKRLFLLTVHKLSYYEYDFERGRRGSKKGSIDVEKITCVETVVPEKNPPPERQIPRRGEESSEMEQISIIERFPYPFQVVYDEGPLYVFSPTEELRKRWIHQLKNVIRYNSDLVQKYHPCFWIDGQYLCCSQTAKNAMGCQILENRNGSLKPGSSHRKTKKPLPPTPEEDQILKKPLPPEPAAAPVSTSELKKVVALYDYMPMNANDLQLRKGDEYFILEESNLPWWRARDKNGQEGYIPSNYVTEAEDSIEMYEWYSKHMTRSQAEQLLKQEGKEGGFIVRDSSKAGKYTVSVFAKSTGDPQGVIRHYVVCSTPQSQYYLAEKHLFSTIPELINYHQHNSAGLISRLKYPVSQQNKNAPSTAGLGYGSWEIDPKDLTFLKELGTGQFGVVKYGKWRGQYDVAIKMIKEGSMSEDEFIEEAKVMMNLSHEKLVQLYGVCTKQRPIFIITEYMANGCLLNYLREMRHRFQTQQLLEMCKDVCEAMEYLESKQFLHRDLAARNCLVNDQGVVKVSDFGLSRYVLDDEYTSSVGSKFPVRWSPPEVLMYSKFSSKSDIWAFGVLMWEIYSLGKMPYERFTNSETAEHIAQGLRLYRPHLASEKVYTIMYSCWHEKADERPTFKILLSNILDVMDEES
Assay: BTK kinase assay (HotSpot, 33P ATP)
Assay type: biochemical
Conditions: 0.01 μM compound, 10 μM ATP
Quantity: BTK @ 0.01 μM (% Inh)

// worked examples, BTK @ 0.01 μM (% Inh) included
For the compound C=CC(=O)N1CC(n2nc(-c3cc(O)cc(F)c3)c3c(N)ncnc32)Cc2cc(C)ccc21 (single isomer, unassigned) [31a] , give its measured BTK @ 0.01 μM (% Inh) value. 67.39

Read off the recorded BTK @ 0.01 μM (% Inh) for "Nc1ccc(-c2nn(C3Cc4ccccc4C3)c3ncnc(N)c23)cn1" 7.68

Answer with the recorded BTK @ 0.01 μM (% Inh) for the compound listed here: "NC(=O)c1cc(-c2cn(C3Cc4ccccc4C3)c3ncnc(N)c23)cc(O)c1F" 10.59

a: N#Cc1ccc(-c2nn(C3Cc4ccccc4C3)c3ncnc(N)c23)cc1O
b: Nc1ncnc2c1c(-c1cc(O)c(F)c(C(F)(F)F)c1)nn2C1CCc2ccccc2C1 (centres unmarked)
c: Nc1ncnc2c1c(-c1cc(O)c(Cl)c(Cl)c1)nn2C1Cc2ccccc2C1
d: Nc1ncnc2c1c(-c1cc(F)c3c(c1)NCCO3)nn2C1Cc2ccc(F)cc2C1 (centres unmarked)
Rank entries according to their BTK @ 0.01 μM (% Inh), from the largest number down. // list labels; follow requested order d, c, a, b

###

Target: BTK (Homo sapiens)
Construct: purchased Reaction Biology Corporation
Experiment: BTK kinase assay (HotSpot, 33P ATP)
Assay type: biochemical
Details: 1 μM compound, 10 μM ATP
Quantity: BTK @ 1 μM (% Inh)

Report measured BTK @ 1 μM (% Inh); entry is "Nc1ncnc2c1c(-c1cccc3[nH]ccc13)nn2C1Cc2ccccc2C1" 54.62

1: Nc1cc(-c2nn(C3Cc4ccccc4C3)c3ncnc(N)c23)cnc1Cl
2: CC(=O)Nc1cccc(-c2nn(C3Cc4ccccc4C3)c3ncnc(N)c23)c1
3: Cc1nc2ccc(-c3nn(C4Cc5ccccc5C4)c4ncnc(N)c34)cc2[nH]1
Sort these compounds on BTK @ 1 μM (% Inh) so the largest reading comes first. Write out the labels following the order that was asked for. 1, 3, 2

a: Nc1ncnc2c1c(-c1cc(O)c(F)c(F)c1)nn2C1Cc2ccccc2C1
b: Nc1ncnc2c1c(/C=C/CO)nn2C1Cc2ccccc2C1 (single isomer, unassigned)
Which item exceeds the other in BTK @ 1 μM (% Inh), a or b ? Respond with the label that goes with your answer. a

a: Nc1ncnc2c1c(-c1cc(F)c3c(c1)NCCO3)nn2C1Cc2ccccc2C1
b: Nc1ncnc2c1c(-c1ccc3[nH]cnc3c1)nn2C1Cc2ccccc2C1
Param metric = BTK @ 1 μM (% Inh); output whichever of a , b has the minimum value. Your answer should be the label attached to the chosen record. b
(b: 48.47 % Inh, a: 90.69 % Inh)

P: Nc1ncnc2c1c(-c1ccc3cc[nH]c3c1)nn2C1Cc2ccccc2C1
Q: Nc1ncnc2c1c(-c1cc(O)cc(OC(F)(F)F)c1)nn2C1Cc2ccccc2C1
R: COc1cncc(-c2nn(C3Cc4ccccc4C3)c3ncnc(N)c23)c1
S: Nc1ncnc2c1c(-c1ccc3c(c1)OC(F)(F)O3)nn2C1Cc2ccccc2C1
T: Nc1ncnc2c1c(-c1ccc(C(F)(F)F)c(OCc3ccccc3)c1)nn2C1Cc2ccccc2C1
Please give the order of these compounds when sorted by BTK @ 1 μM (% Inh), largest value leading. Enter labels, ranked according to the request. P, R, S, Q, T

a: Nc1ncnc2c1c(-c1cc(O)cc(F)c1)cn2C1Cc2ccccc2C1
b: CCOc1cc(-c2nn(C3Cc4ccccc4C3)c3ncnc(N)c23)ccc1OC(F)(F)F
c: COc1cc(-c2nn(C3Cc4ccccc4C3)c3ncnc(N)c23)cc(Cl)c1OC
d: NC(=O)/C=C/c1nn(C2Cc3ccccc3C2)c2ncnc(N)c12
e: Nc1ncnc2c1c(-c1ccnc(O)c1)nn2C1Cc2ccccc2C1
Descending sort on BTK @ 1 μM (% Inh) required. Answer by naming the labels in the order asked. a, c, d, e, b
(a: 98.56 % Inh, c: 68.21 % Inh, d: 43.79 % Inh, e: 24.21 % Inh, b: 6.5 % Inh)

A: Nc1cccc(-c2nn(C3Cc4ccccc4C3)c3ncnc(N)c23)c1
B: CCOc1cc(-c2nn(C3Cc4ccccc4C3)c3ncnc(N)c23)cc(Cl)c1OC(C)C
C: Nc1ncnc2c1c(-c1ccnc3[nH]ccc13)nn2C1Cc2ccccc2C1
Put the items in sequence by BTK @ 1 μM (% Inh), from largest down. I would appreciate it if you listed the labels in the requested order. A, C, B
(A: 87.47 % Inh, C: 36.56 % Inh, B: 9.02 % Inh)

A: Nc1ncnc2c1c(-c1cc(O)c(Cl)cc1Cl)nn2C1Cc2ccccc2C1
B: Nc1ncnc2c1c(CCCO)nn2C1Cc2ccccc2C1 (single isomer, unassigned)
C: COc1cc(-c2nn(C3Cc4ccccc4C3)c3ncnc(N)c23)ccc1C(F)(F)F
Rank the items in ascending order with respect to BTK @ 1 μM (% Inh). The labels, placed in the requested order, form the answer. B, C, A

a: CCOc1c(Cl)cc(-c2nn(C3Cc4ccccc4C3)c3ncnc(N)c23)cc1OC
b: Nc1ncnc2c1c(-c1ccc(CO)cc1)nn2C1Cc2ccccc2C1
In terms of reported BTK @ 1 μM (% Inh), does a or b have the smaller number? Reply briefly: the label of your chosen item. b
(b: 50.29 % Inh, a: 76.64 % Inh)
